# measuredOn: Gal(b1-4)GlcNAc(b1-3)[Gal(b1-4)GlcNAc(b1-6)]GalNAc
# protocolDescription: glycan array binding signal (z-score within array); higher = stronger binding
# protocolConditions: glycan notation: IUPAC condensed, linker removed
The entries come from a sample that favours the strongest signals as a whole.
The entries below come with measured glycan array binding signal (z-score) values attached.
Give the figure by itself; no unit, no explanation.

Examples with answers:
{"binder": "XCL (Xerocomus chrysenteron) (protein) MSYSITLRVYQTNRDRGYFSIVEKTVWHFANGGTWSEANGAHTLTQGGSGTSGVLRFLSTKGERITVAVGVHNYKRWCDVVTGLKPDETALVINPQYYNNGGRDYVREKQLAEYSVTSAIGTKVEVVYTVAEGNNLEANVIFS", "observedProperty": "glycan array binding signal (z-score)", "quantitativeResult": -0.282}
{"binder": "AAL (Agrocybe aegerita), Q6WY08 (protein) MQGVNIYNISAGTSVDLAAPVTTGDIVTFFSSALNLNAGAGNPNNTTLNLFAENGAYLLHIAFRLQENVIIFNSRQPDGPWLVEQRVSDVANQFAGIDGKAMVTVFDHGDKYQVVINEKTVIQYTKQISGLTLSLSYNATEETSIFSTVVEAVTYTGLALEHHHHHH", "observedProperty": "glycan array binding signal (z-score)", "quantitativeResult": -0.153}

Next:
Query: Which measured glycan array binding signal (z-score) value corresponds to CTMLA2 (Anopheles gambiae), Q7Q7F8 (protein) MNLMITILIAVITVVRGDLSVPKTVDDILQQNPCLCPCKPFEEKEYFIPISRTSDWFGAVAYCHSVGMELAEVLNEDEARAMGEVIAEEESDSDDEFYWIGANDLGVQGTYRWALAGRPVLYSQWAAGEPNHARGENGQQPAERCVAVAMDKYEWNDFQCTQQKPFICQQFRKH ?
Reply: 0.036
